Hey, just so you know, these numbers are from ChEMBL document CHEMBL3632592.

Data export: pIC50 values recorded with PC-12.
Note on pIC50: it is the negative log10 of concentration, concentration in mol/L.

Some solved entries appear below for comparison.
[
  {
    "Compound": "Nc1nc(Cl)nc2c1ncn2[C@@H]1O[C@H](COP(=O)(S)OP(=O)(O)OP(=O)(O)O)[C@@H](O)[C@H]1O (stereo in doubt; 9B)",
    "pIC50": 4.00
  },
  {
    "Compound": "Nc1ncnc2c1ncn2[C@@H]1O[C@H](COP(=O)(S)OP(=O)(O)O)[C@@H](O)[C@H]1O (stereo in doubt; 6B)",
    "pIC50": 4.41
  },
  {
    "Compound": "CSc1nc(N)c2ncn([C@@H]3O[C@H](COP(=O)(S)OP(=O)(O)O)[C@@H](O)[C@H]3O)c2n1 (stereo in doubt; 7B)",
    "pIC50": 6.22
  }
]

Q: Please indicate pIC50 recorded for CSc1nc(N)c2ncn([C@@H]3O[C@H](COP(=O)(S)OP(=O)(O)O)[C@@H](O)[C@H]3O)c2n1 (stereo in doubt; 7A)
Ans: 7.10
